Each entry below carries its recorded cell viability.
# Tested on: NOMO1
# METHOD: cell viability relative to DMSO control; higher = less cytotoxic
# STATED_CONDITIONS: RPMI 5 mM glucose + 10% FBS; 48 h; 1.71 µM
MEASUREMENT_NAME: cell viability (%)

{"COMPOUND": "Nc1ncnc2c1ncn2[C@@H]1O[C@H](CO)C[C@H]1O", "STUDY_SYSTEM": "NOMO1", "RESULT_UNITS": "%", "QUANTITATIVE_READOUT": 80.7}
{"COMPOUND": "CN1\\C=N/C2=CC=C(NC3=CC(=CC=C3C)NC(=O)C4=CC(=CC=C4)C(C)(C)C#N)C=C2C1=O", "STUDY_SYSTEM": "NOMO1", "RESULT_UNITS": "%", "QUANTITATIVE_READOUT": 75.6}
{"COMPOUND": "CCCCCNC(=O)N1CCC(CN(Cc2ccc(Cl)cc2)Cc2ccc([N+](=O)[O-])s2)C1 (stereo not given)", "STUDY_SYSTEM": "NOMO1", "RESULT_UNITS": "%", "QUANTITATIVE_READOUT": 112}
{"COMPOUND": "Cc1ccc([S+](=O)([O-])OCC(=O)Nc2ccc(C(=O)O)c(O)c2)cc1", "STUDY_SYSTEM": "NOMO1", "RESULT_UNITS": "%", "QUANTITATIVE_READOUT": 130}
{"COMPOUND": "Cc1cc2c(C(N)=O)cccc2n1-c1nc2c(c(NCc3ccccc3)n1)COCC2", "STUDY_SYSTEM": "NOMO1", "RESULT_UNITS": "%", "QUANTITATIVE_READOUT": 44.1}
{"COMPOUND": "Cc1coc2c1C(=O)C(=O)c1c-2ccc2c1CCCC2(C)C", "STUDY_SYSTEM": "NOMO1", "RESULT_UNITS": "%", "QUANTITATIVE_READOUT": 83.5}
{"COMPOUND": "O=C(CCCN1CCN(c2ccc(F)cc2)CC1)NC1c2ccccc2CSc2ccccc21 (stereo not given)", "STUDY_SYSTEM": "NOMO1", "RESULT_UNITS": "%", "QUANTITATIVE_READOUT": 117}
{"COMPOUND": "CC1=CC(=CC(=C1C\\C2=N\\CCN2)C)C(C)(C)C", "STUDY_SYSTEM": "NOMO1", "RESULT_UNITS": "%", "QUANTITATIVE_READOUT": 91.1}
{"COMPOUND": "COC(=O)c1ccc2c(c1)NC(=O)/C2=C(\\Nc1ccc(N(C)C(=O)CN2CCN(C)CC2)cc1)c1ccccc1", "STUDY_SYSTEM": "NOMO1", "RESULT_UNITS": "%", "QUANTITATIVE_READOUT": 97.8}
{"COMPOUND": "Cc1csc(-c2nnc(Nc3ccc(Oc4ncccc4-c4ccnc(N)n4)cc3)c3ccccc23)c1", "STUDY_SYSTEM": "NOMO1", "RESULT_UNITS": "%", "QUANTITATIVE_READOUT": 81.6}

---

Each entry below carries its recorded cell viability.
# Test system: SEM cells
# METHOD: cell viability relative to DMSO control; higher = less cytotoxic
# STATED_CONDITIONS: RPMI 5 mM glucose + 10% FBS; 48 h; 1.71 µM

{"COMPOUND": "C[C@@H]1CCO[C@H]2CN\\3/C=C(/C(=O)NCC4=C(F)C=C(F)C=C4)C(=O)\\C(=C3C(=O)N12)O", "STUDY_SYSTEM": "SEM cells", "cell viability": "112%"}
{"COMPOUND": "COC(=O)C\\1=C(C)\\N\\C(=C(/C1C2=CC=CC3=NON=C23)C(=O)OC(C)C)C (stereo unspecified)", "STUDY_SYSTEM": "SEM cells", "cell viability": "95%"}
{"COMPOUND": "CCCCOCCOc1nc(-c2ccc(C(=O)O)c(F)c2)sc1C", "STUDY_SYSTEM": "SEM cells", "cell viability": "102%"}
{"COMPOUND": "COc1ccc2c(c1)CN(C)CC2c1ccc(Cl)c(Cl)c1 (stereo unspecified)", "STUDY_SYSTEM": "SEM cells", "cell viability": "123%"}
{"COMPOUND": "CC(=O)Oc1ccccc1C(=O)Nc1ncc([N+](=O)[O-])s1", "STUDY_SYSTEM": "SEM cells", "cell viability": "101%"}
{"COMPOUND": "COC1=C(OCCCN2CCOCC2)C=CC\\3=C1/N=C(/NC(=O)C4=CN=C(N)N=C4)N5CC/N=C35", "STUDY_SYSTEM": "SEM cells", "cell viability": "88.1%"}
{"COMPOUND": "C=C[C@H]1CN2CCC1C[C@@H]2C(O)c1ccnc2ccc(OC)cc12 (stereo partly specified)", "STUDY_SYSTEM": "SEM cells", "cell viability": "77%"}
{"COMPOUND": "CC[C@@H]([C@H](C)O)n1ncn(-c2ccc(N3CCN(c4ccc(OCC5CO[C@@](Cn6cncn6)(c6ccc(F)cc6F)C5)cc4)CC3)cc2)c1=O (stereo partly specified)", "STUDY_SYSTEM": "SEM cells", "cell viability": "103%"}
{"COMPOUND": "COC1=C(OCCCN2CCOCC2)C=C3N=CC=C(OC4=CC=C(C=C4F)\\C5=C\\N=C(\\NC6=CC=C(F)C=C6)N(C)C5=O)C3=C1", "STUDY_SYSTEM": "SEM cells", "cell viability": "56.5%"}
{"COMPOUND": "CN1CC(=O)N2[C@H](c3ccc4c(c3)OCO4)c3[nH]c4ccccc4c3C[C@@H]2C1=O", "STUDY_SYSTEM": "SEM cells", "cell viability": "88.8%"}
{"COMPOUND": "COc1c(C)c2c(c(O)c1C/C=C(\\C)CCC(=O)O)C(=O)OC2", "STUDY_SYSTEM": "SEM cells", "cell viability": "98.2%"}
{"COMPOUND": "O=C(O)c1cccnc1Nc1cccc(C(F)(F)F)c1", "STUDY_SYSTEM": "SEM cells", "cell viability": "55.2%"}
{"COMPOUND": "O=C(CCCN1CCN(c2ccc(F)cc2)CC1)NC1c2ccccc2CSc2ccccc21 (stereo unspecified)", "STUDY_SYSTEM": "SEM cells", "cell viability": "103%"}
{"COMPOUND": "C[C@]12CC[C@H]3[C@@H](CCC4=CC(=O)CC[C@@H]43)[C@@H]1CC[C@@H]2OC(=O)CCc1ccccc1", "STUDY_SYSTEM": "SEM cells", "cell viability": "122%"}
{"COMPOUND": "COC(=O)c1ccc2c(c1)NC(=O)/C2=C(\\Nc1ccc(N(C)C(=O)CN2CCN(C)CC2)cc1)c1ccccc1", "STUDY_SYSTEM": "SEM cells", "cell viability": "43.8%"}
{"COMPOUND": "Cc1ccccc1C(=O)Nc1ccc(C(=O)N2CCCC(O)c3cc(Cl)ccc32)c(C)c1 (stereo unspecified)", "STUDY_SYSTEM": "SEM cells", "cell viability": "32.9%"}

---

Each entry below carries its recorded cell viability.
# Test system: NOMO1
# METHOD: cell viability relative to DMSO control; higher = less cytotoxic
# STATED_CONDITIONS: RPMI 5 mM glucose + 10% dialyzed FBS; 48 h; 0.19 µM
MEASUREMENT_NAME: cell viability (%)

{"MOLECULE": "Cc1coc2c1C(=O)C(=O)c1c-2ccc2c1CCCC2(C)C", "QUANTITATIVE_READOUT": 88.8}
{"MOLECULE": "C[C@]12CC[C@H]3[C@@H](CCC4=CC(=O)CC[C@@H]43)[C@@H]1CC[C@@H]2OC(=O)CCc1ccccc1", "QUANTITATIVE_READOUT": 135}
{"MOLECULE": "CN1CCCN(CC1)C2=CC=C3C(=O)\\C(=C/4SC5=C(C=CC=C5)N4C3=N2)C(=O)NCC6=CN=C(C)C=N6", "QUANTITATIVE_READOUT": 115}
{"MOLECULE": "Nc1ncnc2c1ncn2[C@@H]1O[C@H](CO)C[C@H]1O", "QUANTITATIVE_READOUT": 90.2}
{"MOLECULE": "O=C(O)C(=O)c1cn(Cc2ccccc2)c2ccc(-c3ccc(OC(F)(F)F)cc3)cc12", "QUANTITATIVE_READOUT": 95.3}
{"MOLECULE": "Cc1ccnc2c1NC(=O)c1cccnc1N2C1CC1", "QUANTITATIVE_READOUT": 97.1}
{"MOLECULE": "CN1\\C=N/C2=CC=C(NC3=CC(=CC=C3C)NC(=O)C4=CC(=CC=C4)C(C)(C)C#N)C=C2C1=O", "QUANTITATIVE_READOUT": 79.2}
{"MOLECULE": "COC(=O)C\\1=C(C)\\N\\C(=C(/C1C2=CC=CC3=NON=C23)C(=O)OC(C)C)C (centres undefined)", "QUANTITATIVE_READOUT": 92.3}
{"MOLECULE": "O=C(O)c1cccnc1Nc1cccc(C(F)(F)F)c1", "QUANTITATIVE_READOUT": 117}
{"MOLECULE": "OCC(O)C(O)C(O)CO (centres undefined)", "QUANTITATIVE_READOUT": 106}
{"MOLECULE": "COc1cc2c(cc1OC)CN(CCc1ccc(NC(=O)c3cc(OC)c(OC)cc3NC(=O)c3cnc4ccccc4c3)cc1)CC2", "QUANTITATIVE_READOUT": 126}
{"MOLECULE": "NC[C@H]1O[C@H](O[C@@H]2[C@H](O)[C@@H](O[C@H]3O[C@H](CO)[C@@H](O)[C@H](N)[C@H]3O)[C@H](N)C[C@@H]2N)[C@H](O)[C@@H](O)[C@@H]1O", "QUANTITATIVE_READOUT": 124}
{"MOLECULE": "Cc1cccc(Nc2ccncc2[S+](=O)([O-])NC(=O)NC(C)C)c1", "QUANTITATIVE_READOUT": 92.6}
{"MOLECULE": "CCOC(=O)\\C1=C\\[C@]2(CC)CCCN3CCC4=C([C@H]23)[N]1C5=C4C=CC=C5", "QUANTITATIVE_READOUT": 113}
